Measured Ki on human DHFR (hDHFR) (Homo sapiens) follows.
Sequence (P00374 whole entry): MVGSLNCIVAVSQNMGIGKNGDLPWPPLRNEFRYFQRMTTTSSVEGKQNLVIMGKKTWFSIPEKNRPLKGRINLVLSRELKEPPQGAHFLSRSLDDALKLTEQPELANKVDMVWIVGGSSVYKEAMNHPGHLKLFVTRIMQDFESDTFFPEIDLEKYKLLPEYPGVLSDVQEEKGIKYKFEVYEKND

[
  {
    "SMILES RECORD": "CN(Cc1cnc2nc(N)nc(N)c2n1)c1cccc([N+](=O)[O-])c1",
    "Ki": "> 5 µM"
  },
  {
    "SMILES RECORD": "Nc1nc(N)c2nc(CNc3cccc([N+](=O)[O-])c3)cnc2n1",
    "Ki": "> 5 µM"
  },
  {
    "SMILES RECORD": "Nc1nc(N)c2nc(CNc3ccc4nc(S)sc4c3)cnc2n1",
    "Ki": "> 5 µM"
  },
  {
    "SMILES RECORD": "CN(Cc1cnc2nc(N)nc(N)c2n1)c1ccccc1",
    "Ki": "> 5 µM"
  },
  {
    "SMILES RECORD": "Nc1nc(N)c2nc(CNc3ccc4c(c3)OCO4)cnc2n1",
    "Ki": "> 5 µM"
  },
  {
    "SMILES RECORD": "Nc1nc(N)c2nc(CNc3ccc([N+](=O)[O-])cc3O)cnc2n1",
    "Ki": "1 to 5 µM"
  },
  {
    "SMILES RECORD": "Nc1nc(N)c2nc(CNc3ccc(F)c([N+](=O)[O-])c3)cnc2n1",
    "Ki": "> 5 µM"
  },
  {
    "SMILES RECORD": "CN(Cc1cnc2nc(N)nc(N)c2n1)c1ccc(C(=O)NCc2ccccn2)cc1",
    "Ki": "1 to 5 µM"
  },
  {
    "SMILES RECORD": "Nc1nc(N)c2nc(CNc3cccc(OCc4ccccc4)c3)cnc2n1",
    "Ki": "> 5 µM"
  },
  {
    "SMILES RECORD": "CN(Cc1cnc2nc(N)nc(N)c2n1)c1ccc(C(=O)NCCCCN)cc1",
    "Ki": "1 to 5 µM"
  },
  {
    "SMILES RECORD": "CN(Cc1cnc2nc(N)nc(N)c2n1)c1ccc(C(=O)NCc2ccncc2)cc1",
    "Ki": "0.5 to 0.999 µM"
  },
  {
    "SMILES RECORD": "C[C@H](c1cccc2ccccc12)N(C)c1ncc2c(N)nc(N)nc2n1",
    "Ki": "> 75 µM"
  },
  {
    "SMILES RECORD": "CN(Cc1cnc2nc(N)nc(N)c2n1)c1ccc(C(=O)Nc2ccc(O)cc2)cc1",
    "Ki": "0.5 to 0.999 µM"
  },
  {
    "SMILES RECORD": "Nc1nc(N)c2nc(CNc3ccccc3)cnc2n1",
    "Ki": "> 5 µM"
  },
  {
    "SMILES RECORD": "Nc1nc(N)c2nc(COc3cc([N+](=O)[O-])ccc3N)cnc2n1",
    "Ki": "> 5 µM"
  },
  {
    "SMILES RECORD": "CN(Cc1cnc2nc(N)nc(N)c2n1)c1ccc(C(=O)NCc2cccnc2)cc1",
    "Ki": "0.5 to 0.999 µM"
  },
  {
    "SMILES RECORD": "Nc1nc(N)c2cnc(NCc3ccc(Oc4ccc(F)cc4)cc3)nc2n1",
    "Ki": "> 500 µM"
  },
  {
    "SMILES RECORD": "Nc1nc(N)c2nc(CNc3cc(Cl)cc(Cl)c3)cnc2n1",
    "Ki": "> 5 µM"
  }
]
